Tested target: Cannabinoid receptor 1 (Rattus norvegicus, UniProt P20272)
Sequence (P20272 whole entry): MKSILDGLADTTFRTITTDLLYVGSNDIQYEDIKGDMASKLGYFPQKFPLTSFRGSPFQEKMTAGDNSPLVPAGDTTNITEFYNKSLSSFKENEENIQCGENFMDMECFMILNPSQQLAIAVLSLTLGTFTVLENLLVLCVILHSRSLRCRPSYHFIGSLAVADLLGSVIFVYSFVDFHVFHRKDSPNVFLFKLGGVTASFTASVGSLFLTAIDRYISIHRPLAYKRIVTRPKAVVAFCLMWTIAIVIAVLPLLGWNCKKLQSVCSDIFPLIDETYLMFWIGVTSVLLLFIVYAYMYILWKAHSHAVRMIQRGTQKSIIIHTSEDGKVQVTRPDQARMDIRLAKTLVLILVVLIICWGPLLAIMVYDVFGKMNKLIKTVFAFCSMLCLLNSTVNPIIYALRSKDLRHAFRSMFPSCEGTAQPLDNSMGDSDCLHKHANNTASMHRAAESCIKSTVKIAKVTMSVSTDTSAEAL
pIC50: −log10 of the molar value.
Measurement label: pIC50

Completed entries (count: 4):
>  <Given smiles>
Cc1c(-c2nnc(C3(c4ccc(Cl)cc4)CC3)o2)nc(-c2ccc(Cl)cc2Cl)n1-c1ccc(Cl)cc1

>  <pIC50>
7.82

$$$$
>  <Given smiles>
Cc1c(-c2nnc(C3(c4ccc(Cl)cc4)CC3)s2)nc(-c2ccc(Cl)cc2Cl)n1-c1ccc(Cl)cc1

>  <pIC50>
8.03

$$$$
>  <Given smiles>
Cc1c(-c2nnc(C(C)(C)C)s2)nc(-c2ccccc2Cl)n1-c1ccc(Cl)cc1

>  <pIC50>
7.90

$$$$
>  <Given smiles>
CCc1c(-c2nnc(C(C)(C)C)o2)nc(-c2ccccc2Cl)n1-c1ccc(Cl)cc1

>  <pIC50>
7.67

$$$$

1 = Cc1c(-c2nnc(C3(C(F)(F)F)CC3)s2)nc(-c2ccc(Cl)cc2Cl)n1-c1ccc(Cl)cc1
2 = Cc1c(-c2nnc(C3(C(F)(F)F)CCC3)o2)nc(-c2ccc(Cl)cc2Cl)n1-c1ccc(Cl)cc1
Please indicate which has the smaller reported pIC50: 1 , or 2 . Refer to your chosen item by its label in the answer. 1
(1: 7.47, 2: 7.78)
